biological target: T1, human mature TGFβ2 (PeproTech) (Homo sapiens, UniProt P61812); assay: SPR; Biacore T200; antibody captured on a Protein A sensor chip (about 90 RU); mature TGFβ isoform injected, five-fold dilutions 0.008 nM to 5 nM; HBS-EP pH 7.4, 150 mM NaCl; 37 °C; 100 μl/min; 3 min association, 60 min dissociation; one-to-one Langmuir model, global fit; details: both partners purified
T1 construct: Transforming Growth Factor-beta 2, human, mature form (cut from the precursor); also called TGFb2; source: bought: PeproTech
T1 sequence (P61812 303-414): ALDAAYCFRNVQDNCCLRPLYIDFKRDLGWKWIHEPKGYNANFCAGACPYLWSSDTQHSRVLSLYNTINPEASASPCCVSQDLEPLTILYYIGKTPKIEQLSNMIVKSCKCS
PROPERTY MEASURED: pKd
# log scale: pKd equals minus log10 of the concentration in mol/L

binder="h4A11.v7.5 (antibody, V domains shown, as the VH of m12 (h4A11.v7); numbers count on: Kabat numbering of the heavy chain; as the VL of m12 (h4A11.v7); human IgG1; also called v7.5_S19R, S79W, K81Q; source: Expi293F, transient, purified (Protein A, SEC)) VH: EQQLQESGPGLVKPSETLRLTCTVTGFSLSSYTVNWVRQPAGKGLEWIGYISYGGSAYYASWANGRFTISKDSSKNQVWLQLSSVTAADTAVYFCARHMQVGGAPTGSMAAFDPWGPGTLVTVSS VL: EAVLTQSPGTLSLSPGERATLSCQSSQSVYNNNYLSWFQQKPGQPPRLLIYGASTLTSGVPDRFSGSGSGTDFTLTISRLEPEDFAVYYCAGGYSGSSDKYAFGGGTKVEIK" number=11.25
binder="h4A11.v7.1 (antibody, V domains shown, as the VH of m12 (h4A11.v7); numbers count on: Kabat numbering of the heavy chain; as the VL of m12 (h4A11.v7); human IgG1; also called v7.1_S19R, S79Y; source: Expi293F, transient, purified (Protein A, SEC)) VH: EQQLQESGPGLVKPSETLRLTCTVTGFSLSSYTVNWVRQPAGKGLEWIGYISYGGSAYYASWANGRFTISKDSSKNQVYLKLSSVTAADTAVYFCARHMQVGGAPTGSMAAFDPWGPGTLVTVSS VL: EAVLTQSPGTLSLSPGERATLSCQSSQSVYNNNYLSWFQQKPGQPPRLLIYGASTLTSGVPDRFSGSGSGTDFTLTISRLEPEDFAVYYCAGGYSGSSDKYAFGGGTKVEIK" number=10.97
binder="h4A11.v2.3 (antibody, V domains shown, as the VH of m7 (h4A11.v2) with the stated change; numbers count on: Kabat numbering of the heavy chain; as the VL of m7 (h4A11.v2); human IgG1; also called v2.3_Q81A; source: Expi293F, transient, purified (Protein A, SEC)) VH: EQQLVESGGGLVQPGGSLRLSCAVSGFSLSSYTVNWVRQAPGKGLEWIGYISYGGSAYYASWANGRFTISKDSAKNSVYLAMNSLRAEDTAVYFCARHMQVGGAPTGSMAAFDPWGPGTLVTVSS VL: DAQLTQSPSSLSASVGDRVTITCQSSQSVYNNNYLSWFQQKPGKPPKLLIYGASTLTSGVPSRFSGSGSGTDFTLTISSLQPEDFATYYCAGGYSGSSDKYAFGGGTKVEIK" number=11.47
binder="h4A11.v2.5 (antibody, V domains shown, as the VH of m7 (h4A11.v2) with the stated changes; numbers count on: Kabat numbering of the heavy chain; as the VL of m7 (h4A11.v2); human IgG1; also called v2.5_ R19S, Q81S; source: Expi293F, transient, purified (Protein A, SEC)) VH: EQQLVESGGGLVQPGGSLSLSCAVSGFSLSSYTVNWVRQAPGKGLEWIGYISYGGSAYYASWANGRFTISKDSAKNSVYLSMNSLRAEDTAVYFCARHMQVGGAPTGSMAAFDPWGPGTLVTVSS VL: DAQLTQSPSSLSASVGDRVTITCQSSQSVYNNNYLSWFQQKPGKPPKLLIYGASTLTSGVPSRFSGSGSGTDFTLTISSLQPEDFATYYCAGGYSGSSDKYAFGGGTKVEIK" number=11.77

Moving on to another binder below.
So what's the measured pKd for this one? h4A11.v7.2 (antibody, V domains shown, as the VH of m12 (h4A11.v7); numbers count on: Kabat numbering of the heavy chain; as the VL of m12 (h4A11.v7); human IgG1; also called v7.2_S19R, S79W; source: Expi293F, transient, purified (Protein A, SEC)) VH: EQQLQESGPGLVKPSETLRLTCTVTGFSLSSYTVNWVRQPAGKGLEWIGYISYGGSAYYASWANGRFTISKDSSKNQVWLKLSSVTAADTAVYFCARHMQVGGAPTGSMAAFDPWGPGTLVTVSS VL: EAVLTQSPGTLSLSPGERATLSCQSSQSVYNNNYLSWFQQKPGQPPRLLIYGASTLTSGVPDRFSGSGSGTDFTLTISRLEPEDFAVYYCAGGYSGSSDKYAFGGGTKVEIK
11.02
